molecular target: human ether-à-go-go-related gene (hERG) potassium channel (human, UniProt Q12809); assay: primary screen, population patch clamp on CHO cells stably expressing hERG; higher = less effect of the substance;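 also: peak tail current of the secondary pulse compared with the same well before compound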
Sequence (Q12809 whole entry, looked up): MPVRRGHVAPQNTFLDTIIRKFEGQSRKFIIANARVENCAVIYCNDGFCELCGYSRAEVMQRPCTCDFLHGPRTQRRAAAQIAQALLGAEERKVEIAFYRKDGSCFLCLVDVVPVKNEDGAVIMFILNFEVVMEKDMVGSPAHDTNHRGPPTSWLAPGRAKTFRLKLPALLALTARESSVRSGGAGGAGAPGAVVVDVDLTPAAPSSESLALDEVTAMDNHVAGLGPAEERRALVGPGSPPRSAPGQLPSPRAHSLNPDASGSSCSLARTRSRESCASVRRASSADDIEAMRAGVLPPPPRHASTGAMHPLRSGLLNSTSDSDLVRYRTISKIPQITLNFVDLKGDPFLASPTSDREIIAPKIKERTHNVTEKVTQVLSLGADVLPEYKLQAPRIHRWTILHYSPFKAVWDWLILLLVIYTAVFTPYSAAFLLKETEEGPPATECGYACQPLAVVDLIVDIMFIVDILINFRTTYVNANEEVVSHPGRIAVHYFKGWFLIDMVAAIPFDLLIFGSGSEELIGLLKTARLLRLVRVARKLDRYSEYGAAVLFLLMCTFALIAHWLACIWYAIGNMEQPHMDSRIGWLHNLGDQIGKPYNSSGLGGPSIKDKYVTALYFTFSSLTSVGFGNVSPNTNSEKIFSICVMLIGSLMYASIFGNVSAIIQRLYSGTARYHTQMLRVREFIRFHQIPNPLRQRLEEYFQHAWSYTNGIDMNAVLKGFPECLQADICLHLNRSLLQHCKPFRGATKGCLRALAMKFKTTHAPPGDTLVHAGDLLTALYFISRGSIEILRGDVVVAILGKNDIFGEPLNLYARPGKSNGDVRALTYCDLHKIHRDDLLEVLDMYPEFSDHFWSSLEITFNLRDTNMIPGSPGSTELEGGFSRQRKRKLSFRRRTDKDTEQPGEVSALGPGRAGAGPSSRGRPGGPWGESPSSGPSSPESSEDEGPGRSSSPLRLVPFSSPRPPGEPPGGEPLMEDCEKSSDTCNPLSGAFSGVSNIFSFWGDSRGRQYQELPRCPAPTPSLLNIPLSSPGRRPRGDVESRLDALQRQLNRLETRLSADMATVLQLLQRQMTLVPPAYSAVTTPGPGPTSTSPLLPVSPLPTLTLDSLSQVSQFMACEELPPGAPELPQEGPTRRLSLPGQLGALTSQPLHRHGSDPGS
In all, about 310,000 compounds went through this assay and about 14,000 (4.5%) showed an effect of 50% or more. Effects have a minus sign here. Only a selection was taken, and strong results are over-represented in it overall.
valueType: hERG current change (%, negative = inhibition) at 10uM (%)
Could you give me the number in %? Just the number is fine.

compound	measurementUnits	reported
COc1cccc(CN(C)C(=O)C2CC(=O)N(c3ccc4c(c3)OCCO4)C2)c1 (centres unmarked)	%	12.1
Cn1c(C(=O)N2CCN(c3nc4ccccc4s3)CC2)cc2sccc21	%	-8.35
Fc1ccccc1N1CCN(Cc2nc(-c3ccccc3)no2)CC1	%	-6.65
CC12CCC(C(=O)N(c3cccc(Cl)c3)C1=O)C2(C)C (centres unmarked)	%	-4.23

// lookup hERG current change (%, negative = inhibition) at 10uM for Cc1ccc(C(=O)NC2CC(=O)N(c3ccc4c(c3)OCCO4)C2)cc1[N+](=O)[O-] (centres unmarked)
14.6

How about CCOc1ccc(Nc2nc(N)nc(CSC(=S)N3CCN(c4ccccc4)CC3)n2)cc1 ?
17.2

How about Cc1ccc2c(CC(=O)N3CCN(c4ccccc4)CC3)coc2c1 ?
-22

How about Cc1c(C=O)n(C)n(-c2ccccc2)c1=O ?
11.5

How about COc1ccccc1Nc1nc(N)nc(CN2CCN(c3ccccc3F)CC2)n1 ?
-35.9

How about NC(=O)c1cccnc1Oc1ccccc1 ?
-30.8

###

hERG current change (%, negative = inhibition) at 10uM overview
target: human ether-à-go-go-related gene (hERG) potassium channel (human, UniProt Q12809); experiment: primary screen, population patch clamp on CHO cells stably expressing hERG; higher = less effect of the substance;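 also: peak tail current of the secondary pulse compared with the same well before compound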
Hit rate of the full screen: of about 310,000 compounds, about 14,000 (4.5%) showed an effect of 50% or more. The effect is printed as a negative number. The entries come from a sample that favours strong results as a whole.
Could you give me the number in %? Just the number is fine.

Consider the worked cases shown below.
compound	studySystem	measurementUnits	reported
Cc1ccc(C(=O)Nc2ccc(N3CCN(S(C)(=O)=O)CC3)cc2)cc1	human ether-à-go-go-related gene (hERG) potassium channel (human, UniProt Q12809)	%	4.23
CC(C)c1ccc(CN2CCN(C(=O)CSc3nnnn3C3CC3)CC2)cc1	human ether-à-go-go-related gene (hERG) potassium channel (human, UniProt Q12809)	%	-28.1

// lookup hERG current change (%, negative = inhibition) at 10uM for O=C(O)CN1c2cccc3cccc(c23)S1(=O)=O
32.4

How about Cc1cccc(NC(=O)Nc2ccc(Cl)c(Cl)c2)n1 ?
9.38

How about CCC(c1nnnn1C1CCCCC1)N1CCN(C(=O)c2ccco2)CC1.Cl (centres unmarked) ?
-11.4

###

hERG current change (%, negative = inhibition) at 10uM overview
target: human ether-à-go-go-related gene (hERG) potassium channel (human, UniProt Q12809); assay: primary screen, population patch clamp on CHO cells stably expressing hERG; higher = less effect of the substance;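 also: peak tail current of the secondary pulse compared with the same well before compound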
In all, about 310,000 compounds went through this assay and about 14,000 (4.5%) showed an effect of 50% or more. Effects have a minus sign here. This excerpt belongs to a sample that is enriched for strong results.
Returns: string containing the number followed by the unit.

Consider the worked cases shown below.
molecule	reported
O=C(CSc1ncnc2ccccc12)NCc1ccc2c(c1)OCO2	-16.9%
O=C1C=C(c2ccc(-c3ccccc3)cc2)C[C@@H](c2ccc(Cl)cc2)C1	21.8%

// lookup hERG current change (%, negative = inhibition) at 10uM for Cc1ccc(-c2noc(C3CCCCC3)n2)cc1
16.1%

Reference source for all entries: paper PMC4336329
